// provenance: the supplement of paper PMC10307832

Tested on: NCI-H661
Assay: relative viability (nuclei count vs DMSO), 5 days (fraction); higher = more cells survive
Settings: first compound 1 µM
Param label: returns T when relative viability < 0.3, returns F otherwise, including exact equality.

Prompt: Would you kindly verify if relative viability of NC(=O)Nc1cc(-c2cccc(F)c2)sc1C(=O)N[C@H]1CCCNC1 [AZD7762] + O=C(c1cc(Cc2n[nH]c(=O)c3ccccc23)ccc1F)N1CCN(C(=O)C2CC2)CC1 [Olaparib] (partner 8 µM) is strictly less than 0.3?
Response: F

Prompt: Would you kindly verify if relative viability of NC(=O)Nc1cc(-c2cccc(F)c2)sc1C(=O)N[C@H]1CCCNC1 [AZD7762] + CC(C)C[C@H](NC(=O)[C@H](Cc1ccccc1)NC(=O)c1cnccn1)B(O)O [Bortezomib] (partner 0.002 µM) is strictly less than 0.3?
Response: F

Prompt: Would you kindly verify if relative viability of NC(=O)Nc1cc(-c2cccc(F)c2)sc1C(=O)N[C@H]1CCCNC1 [AZD7762] + CS(=O)(=O)CCNCc1ccc(-c2ccc3ncnc(Nc4ccc(OCc5cccc(F)c5)c(Cl)c4)c3c2)o1 [Lapatinib] (partner 2 µM) is strictly less than 0.3?
Response: T

----------
Provide the recorded relative viability for the entries that follow.
Test system: NCI-H650
Test: relative viability (nuclei count vs DMSO), 5 days (fraction); higher = more cells survive
Details: first compound 0.3162 µM
Write the number on its own, no unit after it.

Prompt: What relative viability value was documented for this molecule, NC(=O)Nc1cc(-c2cccc(F)c2)sc1C(=O)N[C@H]1CCCNC1 [AZD7762] + Nc1ncn([C@H]2C[C@H](O)[C@@H](CO)O2)c(=O)n1 [Decitabine] (partner 2 µM) ?
Response: 0.493

Prompt: What relative viability value was documented for this molecule, NC(=O)Nc1cc(-c2cccc(F)c2)sc1C(=O)N[C@H]1CCCNC1 [AZD7762] + COc1cccc2cc(-c3nc([C@H]4CC[C@H](C(=O)O)CC4)n4ncnc(N)c34)[nH]c12 [OSI-027] (partner 0.5 µM) ?
Response: 0.509

Prompt: What relative viability value was documented for this molecule, NC(=O)Nc1cc(-c2cccc(F)c2)sc1C(=O)N[C@H]1CCCNC1 [AZD7762] + O=C(CCCCCCC(=O)Nc1ccccc1)NO [Vorinostat] (partner 1 µM) ?
Response: 0.399

Prompt: What relative viability value was documented for this molecule, NC(=O)Nc1cc(-c2cccc(F)c2)sc1C(=O)N[C@H]1CCCNC1 [AZD7762] + CCNC(=O)c1noc(-c2cc(C(C)C)c(O)cc2O)c1-c1ccc(CN2CCOCC2)cc1 [Luminespib] (partner 0.01 µM) ?
Response: 0.641

Prompt: What relative viability value was documented for this molecule, NC(=O)Nc1cc(-c2cccc(F)c2)sc1C(=O)N[C@H]1CCCNC1 [AZD7762] + CS(=O)(=O)CCNCc1ccc(-c2ccc3ncnc(Nc4ccc(OCc5cccc(F)c5)c(Cl)c4)c3c2)o1 [Lapatinib] (partner 2 µM) ?
Response: 0.747

----------
Provide the recorded relative viability for the entries that follow.
Tested on: 201T
Assay: relative viability (nuclei count vs DMSO), 5 days (fraction); higher = more cells survive
Conditions: first compound 0.3162 µM
Write the number on its own, no unit after it.

Prompt: What relative viability value was documented for this compound, NC(=O)Nc1cc(-c2cccc(F)c2)sc1C(=O)N[C@H]1CCCNC1 [AZD7762] + CC(C)C[C@H](NC(=O)[C@H](Cc1ccccc1)NC(=O)c1cnccn1)B(O)O [Bortezomib] (partner 0.002 µM) ?
Response: 1.12

Prompt: What relative viability value was documented for this compound, NC(=O)Nc1cc(-c2cccc(F)c2)sc1C(=O)N[C@H]1CCCNC1 [AZD7762] + CS(=O)(=O)CCNCc1ccc(-c2ccc3ncnc(Nc4ccc(OCc5cccc(F)c5)c(Cl)c4)c3c2)o1 [Lapatinib] (partner 2 µM) ?
Response: 1.15

Prompt: What relative viability value was documented for this compound, NC(=O)Nc1cc(-c2cccc(F)c2)sc1C(=O)N[C@H]1CCCNC1 [AZD7762] + Cc1nc(Nc2ncc(C(=O)Nc3c(C)cccc3Cl)s2)cc(N2CCN(CCO)CC2)n1 [Dasatinib] (partner 0.075 µM) ?
Response: 0.567

Prompt: What relative viability value was documented for this compound, NC(=O)Nc1cc(-c2cccc(F)c2)sc1C(=O)N[C@H]1CCCNC1 [AZD7762] + Cc1nc(NC(=O)N2CCC[C@H]2C(N)=O)sc1-c1ccnc(C(C)(C)C(F)(F)F)c1 [Alpelisib] (partner 2 µM) ?
Response: 1.08

----------
Tested on: NCI-H2085
Test: relative viability (nuclei count vs DMSO), 5 days (fraction); higher = more cells survive
Conditions: first compound 0.08 µM
Provide the recorded relative viability for the entries that follow.
Write the number on its own, no unit after it.

Prompt: What relative viability value was documented for this compound, C=C1C(=O)O[C@@H](CCCCCCCC)[C@@H]1C(=O)O [C-75] + CS(=O)(=O)CCNCc1ccc(-c2ccc3ncnc(Nc4ccc(OCc5cccc(F)c5)c(Cl)c4)c3c2)o1 [Lapatinib] (partner 2 µM) ?
Response: 0.802

Prompt: What relative viability value was documented for this compound, Oc1nc(-c2ccc(C(F)(F)F)cc2)nc2c1CSCC2 [XAV939] + CC(=O)c1c(C)c2cnc(Nc3ccc(N4CCNCC4)cn3)nc2n(C2CCCC2)c1=O [Palbociclib] (partner 0.5 µM) ?
Response: 0.489

Prompt: What relative viability value was documented for this compound, Oc1nc(-c2ccc(C(F)(F)F)cc2)nc2c1CSCC2 [XAV939] + COc1cccc2cc(-c3nc([C@H]4CC[C@H](C(=O)O)CC4)n4ncnc(N)c34)[nH]c12 [OSI-027] (partner 0.5 µM) ?
Response: 0.638

Prompt: What relative viability value was documented for this compound, C=C1C(=O)O[C@@H](CCCCCCCC)[C@@H]1C(=O)O [C-75] + Cc1nc(Nc2ncc(C(=O)Nc3c(C)cccc3Cl)s2)cc(N2CCN(CCO)CC2)n1 [Dasatinib] (partner 0.075 µM) ?
Response: 0.264

Prompt: What relative viability value was documented for this compound, Oc1nc(-c2ccc(C(F)(F)F)cc2)nc2c1CSCC2 [XAV939] + Cc1cc(Nc2cc(N3CCN(C)CC3)nc(Sc3ccc(NC(=O)C4CC4)cc3)n2)n[nH]1 [Tozasertib] (partner 0.1 µM) ?
Response: 0.774

----------
Tested on: NCI-H1755
Experiment: relative viability (nuclei count vs DMSO), 5 days (fraction); higher = more cells survive
Conditions: first compound 1 µM
measurement.label: relative viability

Prompt: What relative viability value was documented for this compound, NC(=O)Nc1cc(-c2cccc(F)c2)sc1C(=O)N[C@H]1CCCNC1 [AZD7762] + N=C(N)NC(=N)NCCc1ccccc1 [Phenformin] (partner 250 µM) ?
Response: 0.423

Prompt: What relative viability value was documented for this compound, NC(=O)Nc1cc(-c2cccc(F)c2)sc1C(=O)N[C@H]1CCCNC1 [AZD7762] + CC(=O)Nc1cccc(-n2c(=O)n(C3CC3)c(=O)c3c(Nc4ccc(I)cc4F)n(C)c(=O)c(C)c32)c1 [Trametinib] (partner 0.02 µM) ?
Response: 0.635

Prompt: What relative viability value was documented for this compound, NC(=O)Nc1cc(-c2cccc(F)c2)sc1C(=O)N[C@H]1CCCNC1 [AZD7762] + CC1(C)CCC(c2ccc(Cl)cc2)=C(CN2CCN(c3ccc(C(=O)NS(=O)(=O)c4ccc(N[C@H](CCN5CCOCC5)CSc5ccccc5)c(S(=O)(=O)C(F)(F)F)c4)cc3)CC2)C1 [Navitoclax] (partner 0.5 µM) ?
Response: 0.622

Prompt: What relative viability value was documented for this compound, NC(=O)Nc1cc(-c2cccc(F)c2)sc1C(=O)N[C@H]1CCCNC1 [AZD7762] + Nc1ncn([C@H]2C[C@H](O)[C@@H](CO)O2)c(=O)n1 [Decitabine] (partner 2 µM) ?
Response: 0.703

Prompt: What relative viability value was documented for this compound, NC(=O)Nc1cc(-c2cccc(F)c2)sc1C(=O)N[C@H]1CCCNC1 [AZD7762] + CC(=O)c1c(C)c2cnc(Nc3ccc(N4CCNCC4)cn3)nc2n(C2CCCC2)c1=O [Palbociclib] (partner 0.5 µM) ?
Response: 0.442

----------
Provide the recorded relative viability for the entries that follow.
System: RERF-LC-KJ
Assay: relative viability (nuclei count vs DMSO), 5 days (fraction); higher = more cells survive
Conditions: first compound 0.005 µM

Prompt: What relative viability value was documented for this compound, CC1(C)CCC(c2ccc(Cl)cc2)=C(CN2CCN(c3ccc(C(=O)NS(=O)(=O)c4ccc(N[C@H](CCN5CCOCC5)CSc5ccccc5)c(S(=O)(=O)C(F)(F)F)c4)cc3)CC2)C1 [Navitoclax] + Cc1cc(Nc2cc(N3CCN(C)CC3)nc(Sc3ccc(NC(=O)C4CC4)cc3)n2)n[nH]1 [Tozasertib] (partner 0.1 µM) ?
Response: 0.507

Prompt: What relative viability value was documented for this compound, CC1(C)CCC(c2ccc(Cl)cc2)=C(CN2CCN(c3ccc(C(=O)NS(=O)(=O)c4ccc(N[C@H](CCN5CCOCC5)CSc5ccccc5)c(S(=O)(=O)C(F)(F)F)c4)cc3)CC2)C1 [Navitoclax] + CC(C)C[C@H](NC(=O)[C@H](Cc1ccccc1)NC(=O)c1cnccn1)B(O)O [Bortezomib] (partner 0.002 µM) ?
Response: 1.07

Prompt: What relative viability value was documented for this compound, CC1(C)CCC(c2ccc(Cl)cc2)=C(CN2CCN(c3ccc(C(=O)NS(=O)(=O)c4ccc(N[C@H](CCN5CCOCC5)CSc5ccccc5)c(S(=O)(=O)C(F)(F)F)c4)cc3)CC2)C1 [Navitoclax] + CCNC(=O)c1noc(-c2cc(C(C)C)c(O)cc2O)c1-c1ccc(CN2CCOCC2)cc1 [Luminespib] (partner 0.01 µM) ?
Response: 1.32
